The values you see were collected from patent US11407741B2.

experimental-system: Casp-2 (Homo sapiens, UniProt P42575)
Construct: the Caspase-2 and Caspase-3 are human recombinant active enzymes
Sequence (P42575 170-325 limits assumed): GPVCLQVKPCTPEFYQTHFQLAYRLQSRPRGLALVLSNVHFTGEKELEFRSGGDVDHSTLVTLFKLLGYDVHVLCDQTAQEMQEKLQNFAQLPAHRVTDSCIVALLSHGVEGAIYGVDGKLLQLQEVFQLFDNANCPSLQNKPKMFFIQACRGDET
Sequence (P42575 348-452 limits assumed): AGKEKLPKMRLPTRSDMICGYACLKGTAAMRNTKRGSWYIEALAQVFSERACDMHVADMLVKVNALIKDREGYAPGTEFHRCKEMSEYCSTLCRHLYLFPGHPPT
measurement-notes: Caspase-2 inhibition assay for reversible inhibitors (IC50, Ki, dilution method)
run-conditions: 30 minutes at 37° C. preincubation
Where a SMILES comes first, the peptide text is derived from it.
outcome-measure: pIC50
Give bare numbers, as −log10 of the molar value.

CC(=O)N[C@H](C(=O)N[C@@H](CC(=O)O)C(=O)N[C@H](C(=O)N[C@@H](C)C(=O)N[C@H](C=O)CC(=O)O)C(C)C)C(C)C [Ac-VDVAD-CHO] (Ac-VDVAD-aldehyde) = 8.16

Query :: Fill in: pIC50 of `CC(=O)N[C@@H](CC(=O)O)C(=O)N[C@@H](CCC(=O)O)C(=O)N[C@H](C(=O)N[C@H](C=O)CC(=O)O)C(C)C` is ___
Result :: 5.41
